OD450 at 100 nM overview
- target: T1, human CD19 exon1-3-His tag protein (human, UniProt P15391 20-186, limits assumed)
- T1 construct: membrane-distal part of the extracellular region, made in HEK293E cells; not shown: His tag
- T1 sequence (looked up): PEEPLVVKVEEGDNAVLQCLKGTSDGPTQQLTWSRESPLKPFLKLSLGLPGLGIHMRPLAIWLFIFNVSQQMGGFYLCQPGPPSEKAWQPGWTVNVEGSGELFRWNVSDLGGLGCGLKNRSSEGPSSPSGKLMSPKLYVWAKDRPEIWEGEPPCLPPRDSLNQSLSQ
- method notes: ELISA, coated human CD19 exon 1-3-His
Output should be the measured figure followed by the unit it is expressed in.

# binder, OD450 at 100 nM
data = [
    ("F3.121.4-L2H2 (antibody, mouse IgG1, kappa, V domains shown, humanized antibody of F3.121.4, VL2+VH2, murine IgG1 constant regions) VH: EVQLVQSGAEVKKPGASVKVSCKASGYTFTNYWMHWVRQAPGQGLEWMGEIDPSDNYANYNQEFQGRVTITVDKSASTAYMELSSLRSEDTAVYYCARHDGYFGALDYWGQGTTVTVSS VL: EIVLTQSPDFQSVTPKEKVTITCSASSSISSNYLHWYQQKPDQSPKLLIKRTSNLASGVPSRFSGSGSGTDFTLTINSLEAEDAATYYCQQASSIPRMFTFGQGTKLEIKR", "0.09 OD450"),
    ("F3.121.4 (antibody, human IgG1, V domains shown, human-murine chimeric antibody, human IgG1 constant; also called chimeric antibody F3.121.4) VH: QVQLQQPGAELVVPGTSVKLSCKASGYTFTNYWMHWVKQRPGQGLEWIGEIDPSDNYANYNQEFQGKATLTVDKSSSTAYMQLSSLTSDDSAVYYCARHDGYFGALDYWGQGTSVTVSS VL: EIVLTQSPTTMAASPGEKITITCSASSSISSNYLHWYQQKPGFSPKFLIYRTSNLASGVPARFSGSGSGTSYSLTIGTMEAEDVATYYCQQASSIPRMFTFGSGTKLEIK", "0.07 OD450"),
    ("F3.121.4-L1H2 (antibody, mouse IgG1, kappa, V domains shown, humanized antibody of F3.121.4, VL1+VH2, murine IgG1 constant regions) VH: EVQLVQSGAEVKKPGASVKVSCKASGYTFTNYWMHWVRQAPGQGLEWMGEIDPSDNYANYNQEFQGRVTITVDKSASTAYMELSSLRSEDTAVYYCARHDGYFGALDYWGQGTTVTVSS VL: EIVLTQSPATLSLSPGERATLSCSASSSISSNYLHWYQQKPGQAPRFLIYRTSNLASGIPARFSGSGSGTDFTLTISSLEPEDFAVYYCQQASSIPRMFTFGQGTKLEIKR", "0.09 OD450"),
    ("F3.121.4-L3H1 (antibody, mouse IgG1, kappa, V domains shown, humanized antibody of F3.121.4, VL3+VH1, murine IgG1 constant regions) VH: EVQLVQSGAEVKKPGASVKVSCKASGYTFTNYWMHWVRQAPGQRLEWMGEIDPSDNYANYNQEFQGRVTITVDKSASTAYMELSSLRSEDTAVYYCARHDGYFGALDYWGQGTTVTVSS VL: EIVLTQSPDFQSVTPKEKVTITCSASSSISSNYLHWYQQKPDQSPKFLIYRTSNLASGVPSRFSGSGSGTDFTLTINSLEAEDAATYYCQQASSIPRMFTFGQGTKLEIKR", "0.09 OD450"),
    ("F3.121.4-L1H1 (antibody, mouse IgG1, kappa, V domains shown, humanized antibody of F3.121.4, VL1+VH1, murine IgG1 constant regions) VH: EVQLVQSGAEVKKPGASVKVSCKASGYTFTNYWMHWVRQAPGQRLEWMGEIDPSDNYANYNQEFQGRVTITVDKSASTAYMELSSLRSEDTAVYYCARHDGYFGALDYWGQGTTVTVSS VL: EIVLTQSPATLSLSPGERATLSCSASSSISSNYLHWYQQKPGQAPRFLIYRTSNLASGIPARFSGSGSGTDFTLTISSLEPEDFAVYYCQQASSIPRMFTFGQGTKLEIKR", "0.11 OD450"),
]

Q: Return reported OD450 at 100 nM. Input binder: F3.121.4-L2H1 (antibody, mouse IgG1, kappa, V domains shown, humanized antibody of F3.121.4, VL2+VH1, murine IgG1 constant regions) VH: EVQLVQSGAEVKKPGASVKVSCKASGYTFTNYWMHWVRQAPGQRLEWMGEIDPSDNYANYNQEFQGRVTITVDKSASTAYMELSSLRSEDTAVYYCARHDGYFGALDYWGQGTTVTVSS VL: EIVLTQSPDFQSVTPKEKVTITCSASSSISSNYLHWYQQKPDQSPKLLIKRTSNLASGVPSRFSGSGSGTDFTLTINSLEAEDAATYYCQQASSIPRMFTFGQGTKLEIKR
A: 0.09 OD450

Q: Indicate the recorded OD450 at 100 nM value for this binder: F3.121.4-L3H2 (antibody, mouse IgG1, kappa, V domains shown, humanized antibody of F3.121.4, VL3+VH2, murine IgG1 constant regions) VH: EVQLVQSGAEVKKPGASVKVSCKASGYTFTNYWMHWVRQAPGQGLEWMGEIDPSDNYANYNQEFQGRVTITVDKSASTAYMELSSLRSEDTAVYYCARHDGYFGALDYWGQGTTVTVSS VL: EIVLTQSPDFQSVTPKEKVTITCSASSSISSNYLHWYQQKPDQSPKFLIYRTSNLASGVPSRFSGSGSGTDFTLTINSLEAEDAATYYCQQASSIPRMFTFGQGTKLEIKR
A: 0.12 OD450
